# Test system: DU-145 prostate
# protocolSummary: NCI-60 one-dose screen, 48 h (100 = growth as untreated, 0 = no growth, -100 = all killed)
# conditionDescription: 10 µM unless noted
Compounds without any hit were thinned out: in the full panel of roughly 83,000, 20% have a hit. Calls of active or inactive are those of the source. How the source made its calls: active means growth percent below 10; inactive means the rest.
valueType: growth

COC(=O)[C@@H](NC(=O)c1cn(CCC2CCCCC2)c2ccccc12)C(C)(C)C: 81.7% (inactive)
O=C1NC(=O)C(=Cc2cccn2CCCCCn2c3ccccc3c(=O)c3ccccc32)C(=O)N1: 113% (inactive)
C/C1=C/C(=O)O[C@@H]2C[C@@H](CC[C@H](C)/C=C\C=C\CC1)O[C@@](O)([C@@H]1CSC(=O)N1CO)C2: 22.9% (inactive)
O=C(N/N=C\c1ccc(N(CCCl)CCCl)cc1Cl)c1cccnc1: 94.4% (inactive)

# next compound below
Measured on DU-145 prostate, `c1ccc(COc2ccc3[nH]cc(CCN(Cc4ccccc4)Cc4ccccc4)c3c2)cc1` has a documented growth of 98.8% (inactive)

---

# Tested on: NCI-H23 lung
# protocolSummary: NCI-60 one-dose screen, 48 h
# conditionDescription: 10 µM unless noted
Compounds without any hit were thinned out: in the full panel of roughly 83,000, 20% have a hit. Calls of active or inactive are those of the source. Rule for the calls: active = growth percent below 10; inactive = the rest.
The reply should be one of these categories: active, inactive

Examples from the recorded data:
CC(=O)C(c1c(O)c2ccccc2oc1=O)c1cc(=O)oc2c1ccc1ccccc12 (stereo unspecified): inactive
CC(=O)O[C@H](C[C@H](C(C)C)N(C)C(=O)[C@@H](NC(=O)[C@H]1CCCCN1C)C(C)C)c1nc(C(=O)N[C@@H](Cc2ccccc2)C[C@H](C)C(=O)O)c(C(C)C)s1: inactive
O=C1C2CCC1C(N1CCCC1)CC2 (stereo unspecified): inactive
COC(=O)[C@@H](C[C@H](Cc1ccccc1)NC(=O)c1csc([C@@H](C[C@H](C(C)C)N(C)C(=O)[C@@H](NC(=O)[C@H]2CCCCN2C)C(C)C)OC(C)=O)n1)NC(=O)OCc1ccccc1: inactive
COC(C(=O)[C@@H](O)[C@@H](C)O)[C@@H]1Cc2cc3cc(O[C@H]4C[C@@H](O[C@H]5C[C@@H](O)[C@H](O)C(C)O5)[C@H](O)C(C)O4)c(C)c(O)c3c(O)c2C(=O)[C@H]1O[C@H]1C[C@@H](O[C@H]2C[C@@H](O[C@H]3C[C@@H](O)[C@@H](O)C(C)O3)[C@@H](O)C(C)O2)[C@H](O)C(C)O1 (stereo partly specified): active

[ask] What classification did `COc1ccc(O)c(CNC(=O)CN2CCCC2=O)c1` end up with in this test?
[reply] inactive

---

# System: NCI/ADR-RES ovarian
# protocolSummary: NCI-60 one-dose screen, 48 h (100 = growth as untreated, 0 = no growth, -100 = all killed)
# conditionDescription: 10 µM unless noted
# Procedure: Growth inhibition of the NCI/ADR-RES human […] tumor cell line is measured as a screen for anti-cancer activity. Cells are grown in 96 well plates and exposed to the test compound for 48 hours. Compounds are tested at a single concentration, which is 10^-5 M for most compounds. The reported endpoint is percent growth (GI% or GIPRCNT), where numbers from 0 - 100% represent growth inhibition, and numbers from -100% - 0 represent cell death. For example, a value of 40 represents 60% growth inhibition. […]
Compounds without any hit were thinned out: in the full panel of roughly 83,000, 20% have a hit.
valueType: growth (%)
Use % as the unit, but write only the number.

// worked examples, growth included
COc1ccc(N(CC(=O)NCCC[Te]c2ccccc2)C(=O)CNC(=O)OC(C)(C)C)cc1: 1.78
CC(C)=CCC[C@H](C(=O)O)[C@@H]1CC[C@]2(C)C3=C(CC[C@@]12C)[C@@]1(C)CC[C@H](O)C(C)(C)[C@@H]1CC3: 102
Brc1ccc2c(c1)c(-c1nc(-c3c[nH]c4ncccc34)cs1)cn2CCN1CCCCC1: 75.2

Consider `CC(=O)OC[C@]1(C)C=C2C(=O)[C@](C)(O)C3(CC3)C(C)=C2[C@H]1O` . Its measured growth is -18.7

The recorded growth for `CCCCCCCC[N+](C)(CCCCCCCC)CCCCCCCC` is -100

Documented growth of `CCC1(C(C)C)C(=O)NC(=S)NC1=O` : 115

For `C[C@]12CC[C@H]3[C@@H](CC[C@]4(O)C[C@@H](O[C@@H]5O[C@H](CO)[C@@H](O[C@@H]6OC[C@@H](O)[C@H](O)[C@H]6O)[C@H](O)[C@H]5O)CC[C@]34C=O)[C@@]1(O)CC[C@@H]2C1=CC(=O)OC1` the compound record lists growth as -66.3

In plain terms, `O=C1NC(=O)C(=Cc2cn(CCCCCCn3c4ccccc4c(=O)c4ccccc43)c3ccccc23)C(=O)N1` has a documented growth of 83.9
